Values from patent EP4628508A1

Biological target: T1, human ILT4-ECD protein (human, UniProt Q8N423 22-460)
T1 construct: also called HuILT4; LILRB2 (ILT4)
T1 sequence (Q8N423 other isoform, or with tags, fused parts or gaps limits assumed): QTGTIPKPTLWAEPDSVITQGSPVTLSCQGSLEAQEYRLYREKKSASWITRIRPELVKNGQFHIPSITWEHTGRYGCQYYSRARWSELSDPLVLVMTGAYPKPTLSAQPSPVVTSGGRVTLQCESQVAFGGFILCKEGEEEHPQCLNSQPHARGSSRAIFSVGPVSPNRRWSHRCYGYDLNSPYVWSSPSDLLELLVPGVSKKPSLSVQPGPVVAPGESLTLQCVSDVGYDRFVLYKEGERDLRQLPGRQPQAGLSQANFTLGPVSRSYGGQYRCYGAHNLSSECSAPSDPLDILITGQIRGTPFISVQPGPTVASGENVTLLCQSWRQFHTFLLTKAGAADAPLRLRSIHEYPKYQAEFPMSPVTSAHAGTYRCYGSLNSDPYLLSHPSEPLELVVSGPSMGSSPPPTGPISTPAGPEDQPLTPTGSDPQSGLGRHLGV
Assay: BLI (Octet RED96e), antibody on AHC biosensor, HuILT4 at 100/50/25 nM
property_name: kon (M⁻¹ s⁻¹)
Give a bare numeral; the unit M⁻¹ s⁻¹ is implied.

Worked examples, 3 binders total:
>>> reported_measurement("PR302264-3 (antibody, human IgG4 S228P, kappa, V domains shown, PTM variant of PR302264, IgG4; also called PR302264-3 (IgG4)) VH: QVQLQQWGAGLLKPSETLSLTCAVYGGSLSGYYWSWIRQPPGKGLEWIGEITHSGGTNYNPSLKSRVTISVPTSKNQFSLKLTSVTAADTAVYYCARGQQQLDWYFDLWGRGTLVTVSS VL: EIVMTQSPATLSVSPGERATLSCRASQNIYSHLVWYQQKPGQAPRLLIYGASTRATGIPARFSGSGSGTEFTLTITSLQSEDFTVYYCQQYNDWPPITFGQGTRLEIRR")
454000
>>> reported_measurement("PR302264 (antibody, human IgG1, kappa, V domains shown, IgG1; also called PR302264 (IgG1)) VH: QVQLQQWGAGLLKPSETLSLTCAVYGGSLSGYYWSWIRQPPGKGLEWIGEINHSGGTNYNPSLKSRVTISVPTSKNQFSLKLTSVTAADTAVYYCARGQQQLDWYFDLWGRGTLVTVSS VL: EIVMTQSPATLSVSPGERATLSCRASQNIYSHLVWYQQKPGQAPRLLIYGASTRATGIPARFSGSGSGTEFTLTITSLQSEDFTVYYCQQYNDWPPITFGQGTRLEIRR")
462000
>>> reported_measurement("PR302282 (antibody, human IgG1, kappa, V domains shown, IgG1; also called PR302282 (IgG1)) VH: QVQLVESGGTVVQSGRSLRLSCAASGFTFSSYGMHWVRQAPGKGLEWVAGMWYDGNYKYYADSVKGRFTISRDNSKNTLSLQMNSLRAEDTAVYYCARDSPIGVFDYWGQGTLVTVSS VL: DIQMTQSPSSLSASVGDRVTITCQASQDISNYLNWYQQKPGKAPKLLIYDASNLETGVPSRFSGSGSGTDFTFTISSLQPEDIATYYCQQYDNLITFGQGTRLEIKR")
648000

Would you mind telling me what kon value was observed for PR302949 (antibody, human IgG1, kappa, V domains shown, IgG1; also called PR302949 (IgG1)) VH: EVQLLESGGGLVQPGGSLRLSCAASGFTFSSYAMSWVRQAPGKGLEWVSSISGSDFSTYYADSVKGRFTISRDTSKNTLYLQMNSLRAEDTAVYYCAKDRQWLVSSFDFWGQGALVTVSS VL: DIQMTQSPSSLSASVGDRVTITCQASQDISNYLNWYQQKPGKAPKLLIYDASNLETGVPSRFSGSGSGTDFTFTISSLQPEDIATYYCQQYDNLITFGQGTRLEIKR ? 985000
